# tested_on: T1, RBFOX1 RRM (Homo sapiens, UniProt Q9NWB1 109-208)
# T1 sequence: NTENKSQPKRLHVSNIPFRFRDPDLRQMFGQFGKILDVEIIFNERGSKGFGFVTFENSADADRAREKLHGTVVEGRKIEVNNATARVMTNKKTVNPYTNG
# procedure_summary: EMSA; HiTS-Eq, 1 nM pool, 10 min; buffer printed only for the single-RNA assays: 10 mM Tris pH 7.5, 150 mM NaCl, 3.4 mM EDTA, 0.001% NP-40, 30 C
# experimental_conditions: tags: His6 N-terminal (pET28a); label: 5' 32P
In all, about 16,000 sequences were measured (“ka relative to ugcaugu”: median about 0.0091, highest 2% from about 0.032 on). This excerpt belongs to a sample that is enriched for the highest values.

| binder | binding signal |
| --- | --- |
| UCAGACC (DNA:RNA) RNA: GGGAGACCGGAAUUCAGAUUGUCCUCAGACCUUAAAUCCCGUCGUAGCCACCA DNA 1: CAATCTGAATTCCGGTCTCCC DNA 2: TGGTGGCTACGACGGGATT | 0.00454 KA relative to UGCAUGU |
| CCCGACG (DNA:RNA) RNA: GGGAGACCGGAAUUCAGAUUGUCCCCCGACGUUAAAUCCCGUCGUAGCCACCA DNA 1: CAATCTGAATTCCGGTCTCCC DNA 2: TGGTGGCTACGACGGGATT | 0.0192 KA relative to UGCAUGU |
